- System: Escherichia coli TOP10
- ASSAY_COMMENT: shrunken log2 fold change of peptide-encoding DNA abundance (4.5 h post-induction vs induction); higher = less antimicrobial activity (less host growth inhibition)
- PROTOCOL_CONDITIONS: time post-induction: 4.5 h; library: site-saturation at positions 5, 18, 19, 20
// label 0 strictly below -0.007 in shrunken log2 fold change; label 1 otherwise

[Q] Say whether `RRIRRRPPRLPRPRPRPMKDPRP` shows shrunken log2 fold change of -0.007 or more.
[A] label 1

[Q] Say whether `RRIRQRPPRLPRPRPRPVFHPRP` shows shrunken log2 fold change of -0.007 or more.
[A] label 0

[Q] Say whether `RRIRIRPPRLPRPRPRPQLTPRP` shows shrunken log2 fold change of -0.007 or more.
[A] label 0

[Q] Say whether `RRIRRRPPRLPRPRPRPWRFPRP` shows shrunken log2 fold change of -0.007 or more.
[A] label 1

[Q] Say whether `RRIRPRPPRLPRPRPRPIDQPRP` shows shrunken log2 fold change of -0.007 or more.
[A] label 0

[Q] Say whether `RRIRCRPPRLPRPRPRPGPCPRP` shows shrunken log2 fold change of -0.007 or more.
[A] label 1

[Q] Say whether `RRIRVRPPRLPRPRPRPWALPRP` shows shrunken log2 fold change of -0.007 or more.
[A] label 0

----------
So I've got a bunch of sequences here, and I need their shrunken log2 fold change values.
- System: Escherichia coli TOP10
- ASSAY_COMMENT: shrunken log2 fold change of peptide-encoding DNA abundance (4.5 h post-induction vs induction); higher = less antimicrobial activity (less host growth inhibition)
- PROTOCOL_CONDITIONS: time post-induction: 4.5 h; library: site-saturation at positions 5, 18, 19, 20
Please reply with the value in numeric form only.

[Q] What shrunken log2 fold change appears in the records for this sequence with Escherichia coli TOP10? `RRIRWRPPRLPRPRPRPQTSPRP`
[A] -0.0118

[Q] What shrunken log2 fold change appears in the records for this sequence with Escherichia coli TOP10? `RRIRGRPPRLPRPRPRPPYCPRP`
[A] 0.204

[Q] What shrunken log2 fold change appears in the records for this sequence with Escherichia coli TOP10? `RRIRMRPPRLPRPRPRPVLCPRP`
[A] 0.182

[Q] What shrunken log2 fold change appears in the records for this sequence with Escherichia coli TOP10? `RRIRGRPPRLPRPRPRPEEGPRP`
[A] 0.0303

[Q] What shrunken log2 fold change appears in the records for this sequence with Escherichia coli TOP10? `RRIRSRPPRLPRPRPRPVGMPRP`
[A] 0.12

[Q] What shrunken log2 fold change appears in the records for this sequence with Escherichia coli TOP10? `RRIRNRPPRLPRPRPRPCSCPRP`
[A] -0.0018

[Q] What shrunken log2 fold change appears in the records for this sequence with Escherichia coli TOP10? `RRIRGRPPRLPRPRPRPMCPPRP`
[A] 0.0883

[Q] What shrunken log2 fold change appears in the records for this sequence with Escherichia coli TOP10? `RRIRERPPRLPRPRPRPCGDPRP`
[A] -0.231

----------
- Tested on: Escherichia coli TOP10;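 note: peptides expressed intracellularly from a pBAD plasmid library in pooled LB shake-flask culture, induced with 0.3% L-arabinose, DNA abundance read by NGS, three biological replicates, DESeq2 with apeglm shrinkage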
- ASSAY_COMMENT: shrunken log2 fold change of peptide-encoding DNA abundance (4.5 h post-induction vs induction); higher = less antimicrobial activity (less host growth inhibition)
- PROTOCOL_CONDITIONS: time post-induction: 4.5 h; library: site-saturation at positions 5, 18, 19, 20
VALUE_TYPE: shrunken log2 fold change
Please reply with the value in numeric form only.

[Q] What shrunken log2 fold change appears in the records for this sequence with Escherichia coli TOP10? `RRIRWRPPRLPRPRPRPWDNPRP`
[A] -0.00804

[Q] What shrunken log2 fold change appears in the records for this sequence with Escherichia coli TOP10? `RRIRCRPPRLPRPRPRPDHFPRP`
[A] -0.175

[Q] What shrunken log2 fold change appears in the records for this sequence with Escherichia coli TOP10? `RRIRSRPPRLPRPRPRPVEKPRP`
[A] -0.0804

[Q] What shrunken log2 fold change appears in the records for this sequence with Escherichia coli TOP10? `RRIRGRPPRLPRPRPRPNEYPRP`
[A] 0.249

[Q] What shrunken log2 fold change appears in the records for this sequence with Escherichia coli TOP10? `RRIRMRPPRLPRPRPRPTRHPRP`
[A] 0.889

[Q] What shrunken log2 fold change appears in the records for this sequence with Escherichia coli TOP10? `RRIRLRPPRLPRPRPRPFYTPRP`
[A] -0.338

[Q] What shrunken log2 fold change appears in the records for this sequence with Escherichia coli TOP10? `RRIRTRPPRLPRPRPRPDTSPRP`
[A] -0.324

[Q] What shrunken log2 fold change appears in the records for this sequence with Escherichia coli TOP10? `RRIRPRPPRLPRPRPRPAHAPRP`
[A] 0.236

[Q] What shrunken log2 fold change appears in the records for this sequence with Escherichia coli TOP10? `RRIRERPPRLPRPRPRPVSYPRP`
[A] 0.0843

[Q] What shrunken log2 fold change appears in the records for this sequence with Escherichia coli TOP10? `RRIRGRPPRLPRPRPRPQFNPRP`
[A] -0.163

[Q] What shrunken log2 fold change appears in the records for this sequence with Escherichia coli TOP10? `RRIRGRPPRLPRPRPRPLAMPRP`
[A] 0.94

[Q] What shrunken log2 fold change appears in the records for this sequence with Escherichia coli TOP10? `RRIRDRPPRLPRPRPRPYFYPRP`
[A] -0.793

[Q] What shrunken log2 fold change appears in the records for this sequence with Escherichia coli TOP10? `RRIRSRPPRLPRPRPRPALVPRP`
[A] 0.398

[Q] What shrunken log2 fold change appears in the records for this sequence with Escherichia coli TOP10? `RRIRQRPPRLPRPRPRPACPPRP`
[A] 0.0154

[Q] What shrunken log2 fold change appears in the records for this sequence with Escherichia coli TOP10? `RRIRTRPPRLPRPRPRPGLQPRP`
[A] -0.138
